Measured inhibition of growth at 10 µM by item
experiment: Growth inhibition of human SW620 cells at 10 uM after 48 hrs by SRB assay; assay type: functional; conditions: SW-620, 48 h, read-out: GI
The answer is to be given in %; state only the numeric part.

structure_smiles=Fc1ccc(Nc2nccc(Nc3ccc4[nH]ncc4c3)n2)cc1 test_result=31

Item: COc1cccc(Nc2nccc(Nc3ccc4[nH]ncc4c3)n2)c1 | inhibition of growth at 10 µM: 169

Item: NS(=O)(=O)c1ccc(Nc2nccc(Nc3ccc4[nH]ncc4c3)n2)cc1 | inhibition of growth at 10 µM: -11

Item: Clc1ccc(Nc2nccc(Nc3ccc4[nH]ncc4c3)n2)cc1 | inhibition of growth at 10 µM: 67

Item: COc1ccc(Nc2nccc(Nc3ccc4[nH]ncc4c3)n2)cc1 | inhibition of growth at 10 µM: 75

###

tested on: T47D; assay: Growth inhibition of human T47D cells at 10 uM after 48 hrs by SRB assay; format: functional; conditions: read-out: GI
Measured inhibition of growth at 10 µM by item
The answer is to be given in %; state only the numeric part.

structure_smiles=COc1cccc(Nc2nccc(Nc3ccc4[nH]ncc4c3)n2)c1 measured_metric="inhibition of growth at 10 µM" uom=% test_result=152
structure_smiles=Clc1ccc(Nc2nccc(Nc3ccc4[nH]ncc4c3)n2)cc1 measured_metric="inhibition of growth at 10 µM" uom=% test_result=70
structure_smiles=Fc1ccc(Nc2nccc(Nc3ccc4[nH]ncc4c3)n2)cc1 measured_metric="inhibition of growth at 10 µM" uom=% test_result=71
structure_smiles=NS(=O)(=O)c1ccc(Nc2nccc(Nc3ccc4[nH]ncc4c3)n2)cc1 measured_metric="inhibition of growth at 10 µM" uom=% test_result=50

Record for COc1ccc(Nc2nccc(Nc3ccc4[nH]ncc4c3)n2)cc1 under target or system T47D: inhibition of growth at 10 µM reported as 104

###

Measured inhibition of growth at 10 µM by item
test: Growth inhibition of human RXF393 cells at 10 uM after 48 hrs by SRB assay; format: functional; details: RXF 393, 48 h, read-out: GI
The answer is to be given in %; state only the numeric part.

Item: Fc1ccc(Nc2nccc(Nc3ccc4[nH]ncc4c3)n2)cc1 | inhibition of growth at 10 µM: 67

Item: COc1ccc(Nc2nccc(Nc3ccc4[nH]ncc4c3)n2)cc1 | inhibition of growth at 10 µM: 68

Item: COc1cccc(Nc2nccc(Nc3ccc4[nH]ncc4c3)n2)c1 | inhibition of growth at 10 µM: 82

Item: NS(=O)(=O)c1ccc(Nc2nccc(Nc3ccc4[nH]ncc4c3)n2)cc1 | inhibition of growth at 10 µM: 11

Item: Clc1ccc(Nc2nccc(Nc3ccc4[nH]ncc4c3)n2)cc1 | inhibition of growth at 10 µM: 65

###

assay: Growth inhibition of human COLO205 cells at 10 uM after 48 hrs by SRB assay; type: functional; conditions: COLO 205, 48 h, read-out: GI
measured metric: inhibition of growth at 10 µM (%)
The answer is to be given in %; state only the numeric part.

Below, 3 molecules whose answers are already recorded.
structure_smiles=COc1ccc(Nc2nccc(Nc3ccc4[nH]ncc4c3)n2)cc1 test_result=74
structure_smiles=Fc1ccc(Nc2nccc(Nc3ccc4[nH]ncc4c3)n2)cc1 test_result=39
structure_smiles=COc1cccc(Nc2nccc(Nc3ccc4[nH]ncc4c3)n2)c1 test_result=188

Item: NS(=O)(=O)c1ccc(Nc2nccc(Nc3ccc4[nH]ncc4c3)n2)cc1 | inhibition of growth at 10 µM: -4

Item: Clc1ccc(Nc2nccc(Nc3ccc4[nH]ncc4c3)n2)cc1 | inhibition of growth at 10 µM: 58
